Target: ER (Homo sapiens (Human), UniProt P03372)
Sequence (P03372 whole entry): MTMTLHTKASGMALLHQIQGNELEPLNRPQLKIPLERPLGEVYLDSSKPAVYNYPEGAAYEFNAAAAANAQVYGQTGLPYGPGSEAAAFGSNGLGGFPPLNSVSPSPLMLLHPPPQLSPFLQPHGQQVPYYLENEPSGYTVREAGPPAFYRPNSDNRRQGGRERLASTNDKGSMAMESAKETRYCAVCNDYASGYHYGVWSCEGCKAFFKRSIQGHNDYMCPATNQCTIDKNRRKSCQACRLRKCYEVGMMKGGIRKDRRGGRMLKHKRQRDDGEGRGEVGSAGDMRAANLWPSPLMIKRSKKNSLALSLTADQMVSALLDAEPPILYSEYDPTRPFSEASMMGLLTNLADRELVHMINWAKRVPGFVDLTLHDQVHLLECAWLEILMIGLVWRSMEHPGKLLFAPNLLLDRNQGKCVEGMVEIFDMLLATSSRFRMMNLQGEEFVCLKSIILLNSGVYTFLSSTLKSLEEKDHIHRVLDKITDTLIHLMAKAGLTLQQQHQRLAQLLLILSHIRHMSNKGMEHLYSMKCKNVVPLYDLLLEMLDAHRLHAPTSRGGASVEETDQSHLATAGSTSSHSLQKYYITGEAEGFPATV
Assay: In-cell western (ICW) ER degradation assay in MCF-7 cells
Assay type: cell-based
Details: MCF7, maximal ER degradation, MCF7, 16 hrs
Method: ERa degradative activity of compounds can be assessed in MCF-7 and T47D Cells. MCF-7 and T47D cell are seeded and are subsequently treated with the compounds at certain concentrations (e.g., 0.02 to 300 nM). DMSO can be used as vehicle control. Cells are fixed and are blocked with Intercept (PBS) Blocking Buffer (e.g., Li-COR, Odyssey Blocking Buffer), and are stained with ER (e.g., 1:500, Cell signaling) primary antibody for overnight at cold room. […]
attribute.measured: Dmax

INSERT INTO assay_data (compound, attribute_measured, recorded_measurement) VALUES
  ('O=C1CC[C@@H](N2Cc3c(ccc4c3OC[C@@H]3CN(CC5COC6(CCN(c7ccc([C@@H]8c9ccc(O)cc9OC[C@@H]8c8ccccc8)cc7F)CC6)C5)CCN43)C2=O)C(=O)N1 (single isomer, unassigned)', 'Dmax', '50 to 75%'),
  ('O=C1CC[C@@H](N2Cc3c(ccc4c3OC[C@@H]3CN(C[C@H]5COC6(CCN(c7ccc([C@H]8c9ccc(O)cc9OC[C@H]8c8ccccc8)cc7)CC6)C5)CCN43)C2=O)C(=O)N1', 'Dmax', '25 to 50%'),
  ('O=C1CCC(N2Cc3c(ccc4c3OC[C@H]3CN(CC5CCN(c6ccc([C@@H]7c8ccc(O)cc8OC[C@@H]7c7ccccc7)cc6)CC5)CCN43)C2=O)C(=O)N1 (single isomer, unassigned)', 'Dmax', '50 to 75%'),
  ('COc1ccc([C@H]2COc3cc(O)ccc3[C@H]2c2ccc(N3CCC(CN4CCN5c6ccc7c(c6OC[C@H]5C4)CN(C4CCC(=O)NC4=O)C7=O)CC3)cc2)cc1 (single isomer, unassigned)', 'Dmax', '50 to 75%'),
  ('O=C1CC[C@@H](Nc2ccc(C3CCN(C[C@H]4COC5(CCN(c6ccc([C@@H]7c8ccc(O)cc8OC[C@@H]7c7ccccc7)cc6)CC5)C4)CC3)c(F)c2)C(=O)N1 (single isomer, unassigned)', 'Dmax', '25 to 50%'),
  ('O=C1CC[C@@H](N2Cc3cc4c(cc3C2=O)OC[C@H]2CN(CC3CCC5(CC3)CN(c3ccc([C@@H]6c7ccc(O)cc7OC[C@@H]6c6ccccc6)cc3)C5)CCN42)C(=O)N1', 'Dmax', '50 to 75%'),
  ('O=C1CCC(N2Cc3c(ccc4c3OC[C@H]3CN(CC5CCN(c6ncc([C@@H]7c8ccc(O)cc8OC[C@@H]7c7ccccc7)cn6)CC5)CCN43)C2=O)C(=O)N1 (single isomer, unassigned)', 'Dmax', '25 to 50%');

----------
biological target: CRBN/DDB1 (Homo sapiens (Human), UniProt Q96SW2); experiment: HTRF binding assay to CRBN/DDB1; details: read-out: CRBN HTRF IC50
Sequence (Q96SW2 whole entry): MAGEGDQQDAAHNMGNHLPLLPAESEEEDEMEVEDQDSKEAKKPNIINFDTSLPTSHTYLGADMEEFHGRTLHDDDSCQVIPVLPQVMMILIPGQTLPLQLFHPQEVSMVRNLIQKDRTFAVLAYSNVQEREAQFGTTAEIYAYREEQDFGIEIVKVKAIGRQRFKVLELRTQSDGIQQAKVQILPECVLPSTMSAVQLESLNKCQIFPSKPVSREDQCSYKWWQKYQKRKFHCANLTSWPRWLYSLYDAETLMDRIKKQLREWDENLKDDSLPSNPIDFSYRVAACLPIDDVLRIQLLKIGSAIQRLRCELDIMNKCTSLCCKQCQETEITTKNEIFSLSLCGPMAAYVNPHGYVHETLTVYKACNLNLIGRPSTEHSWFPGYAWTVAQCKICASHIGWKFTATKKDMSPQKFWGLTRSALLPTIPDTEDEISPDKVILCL
Sequence (Q16531 whole entry partner): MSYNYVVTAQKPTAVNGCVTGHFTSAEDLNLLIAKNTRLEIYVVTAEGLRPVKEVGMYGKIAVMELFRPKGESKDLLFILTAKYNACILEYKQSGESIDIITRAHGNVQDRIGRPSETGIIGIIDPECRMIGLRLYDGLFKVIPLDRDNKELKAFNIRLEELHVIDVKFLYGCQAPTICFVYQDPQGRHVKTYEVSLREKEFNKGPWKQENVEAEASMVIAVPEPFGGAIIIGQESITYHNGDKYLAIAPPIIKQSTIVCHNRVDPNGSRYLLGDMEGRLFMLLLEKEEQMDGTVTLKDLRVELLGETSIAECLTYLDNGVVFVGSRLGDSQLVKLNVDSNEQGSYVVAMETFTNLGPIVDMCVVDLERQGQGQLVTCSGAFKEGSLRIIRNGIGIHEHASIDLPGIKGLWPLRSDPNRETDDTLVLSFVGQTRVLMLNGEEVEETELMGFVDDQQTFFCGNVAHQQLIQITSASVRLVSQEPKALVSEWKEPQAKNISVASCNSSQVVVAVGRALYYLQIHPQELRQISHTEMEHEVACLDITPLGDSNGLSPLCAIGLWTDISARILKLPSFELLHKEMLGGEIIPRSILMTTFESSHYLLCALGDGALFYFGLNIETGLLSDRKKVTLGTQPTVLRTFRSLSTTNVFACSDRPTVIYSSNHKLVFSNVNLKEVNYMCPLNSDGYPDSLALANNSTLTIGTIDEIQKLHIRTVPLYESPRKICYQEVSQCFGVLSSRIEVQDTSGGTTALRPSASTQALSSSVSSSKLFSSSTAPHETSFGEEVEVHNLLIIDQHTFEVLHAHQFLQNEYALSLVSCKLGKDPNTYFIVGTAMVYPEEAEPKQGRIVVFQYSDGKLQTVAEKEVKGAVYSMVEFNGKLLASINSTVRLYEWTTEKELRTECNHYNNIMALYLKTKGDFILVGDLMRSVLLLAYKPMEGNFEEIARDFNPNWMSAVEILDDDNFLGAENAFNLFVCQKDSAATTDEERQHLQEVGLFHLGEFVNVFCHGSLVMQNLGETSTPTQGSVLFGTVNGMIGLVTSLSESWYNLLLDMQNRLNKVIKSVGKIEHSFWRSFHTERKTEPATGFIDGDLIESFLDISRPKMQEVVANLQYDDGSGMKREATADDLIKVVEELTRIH
# reported IC50; entries follow
attribute.measured: IC50

INSERT INTO results (compound, attribute_measured, recorded_measurement) VALUES
  ('O=C1CCN(c2ccc(N3CCC(CN4CC5(CCN(c6ccc([C@@H]7c8ccc(O)cc8OC[C@@H]7c7ccccc7)cc6)CC5)C4)CC3)cc2)C(=O)N1 (single isomer, unassigned)', 'IC50', '> 5 µM'),
  ('O=C1CCC(N2Cc3c(ccc4c3OC[C@@H]3CN(CC5CC6(CCN(c7ccc([C@H]8c9ccc(O)cc9OC[C@H]8c8ccccc8)cc7)CC6)C5)CCN43)C2=O)C(=O)N1 (single isomer, unassigned)', 'IC50', '< 0.05 µM'),
  ('O=C1CCC(N2C(=O)c3cc4c(cc3C2=O)CN(CC(=O)N2CCC3(CC2)CCN(c2ncc([C@@H]5c6ccc(O)cc6OC[C@@H]5c5ccccc5)cn2)CC3)C4)C(=O)N1 (stereo partly drawn)', 'IC50', '0.5 to 5 µM');

Data credit: patent US20260000676A1
